Cited source for all entries: paper PMC3703287

ASSAY TARGET: human CB2 receptor (Homo sapiens, UniProt P34972)
Sequence (P34972 whole entry): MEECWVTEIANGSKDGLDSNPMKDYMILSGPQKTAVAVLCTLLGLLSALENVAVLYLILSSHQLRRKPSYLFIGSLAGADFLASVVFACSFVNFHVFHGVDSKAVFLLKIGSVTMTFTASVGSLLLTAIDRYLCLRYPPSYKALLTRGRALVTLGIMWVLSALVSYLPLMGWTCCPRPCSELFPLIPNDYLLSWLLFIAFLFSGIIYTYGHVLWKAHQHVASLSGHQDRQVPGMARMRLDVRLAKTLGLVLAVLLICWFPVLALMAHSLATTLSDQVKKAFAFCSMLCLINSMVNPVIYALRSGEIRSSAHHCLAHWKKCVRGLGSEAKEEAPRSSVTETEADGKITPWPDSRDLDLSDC
pKi: −log10 of the molar value.

COMPOUND: CCCCCn1c2ccccc2c2cc(C(=O)OCCN(C)C)ccc21 [NMP-181]
ASSAY TARGET: human CB2 receptor (Homo sapiens, UniProt P34972)
pKi: 6.91

====

ASSAY TARGET: CaV3.2 (Homo sapiens, UniProt O95180)
Construct: α1 subunit
Sequence (O95180 whole entry): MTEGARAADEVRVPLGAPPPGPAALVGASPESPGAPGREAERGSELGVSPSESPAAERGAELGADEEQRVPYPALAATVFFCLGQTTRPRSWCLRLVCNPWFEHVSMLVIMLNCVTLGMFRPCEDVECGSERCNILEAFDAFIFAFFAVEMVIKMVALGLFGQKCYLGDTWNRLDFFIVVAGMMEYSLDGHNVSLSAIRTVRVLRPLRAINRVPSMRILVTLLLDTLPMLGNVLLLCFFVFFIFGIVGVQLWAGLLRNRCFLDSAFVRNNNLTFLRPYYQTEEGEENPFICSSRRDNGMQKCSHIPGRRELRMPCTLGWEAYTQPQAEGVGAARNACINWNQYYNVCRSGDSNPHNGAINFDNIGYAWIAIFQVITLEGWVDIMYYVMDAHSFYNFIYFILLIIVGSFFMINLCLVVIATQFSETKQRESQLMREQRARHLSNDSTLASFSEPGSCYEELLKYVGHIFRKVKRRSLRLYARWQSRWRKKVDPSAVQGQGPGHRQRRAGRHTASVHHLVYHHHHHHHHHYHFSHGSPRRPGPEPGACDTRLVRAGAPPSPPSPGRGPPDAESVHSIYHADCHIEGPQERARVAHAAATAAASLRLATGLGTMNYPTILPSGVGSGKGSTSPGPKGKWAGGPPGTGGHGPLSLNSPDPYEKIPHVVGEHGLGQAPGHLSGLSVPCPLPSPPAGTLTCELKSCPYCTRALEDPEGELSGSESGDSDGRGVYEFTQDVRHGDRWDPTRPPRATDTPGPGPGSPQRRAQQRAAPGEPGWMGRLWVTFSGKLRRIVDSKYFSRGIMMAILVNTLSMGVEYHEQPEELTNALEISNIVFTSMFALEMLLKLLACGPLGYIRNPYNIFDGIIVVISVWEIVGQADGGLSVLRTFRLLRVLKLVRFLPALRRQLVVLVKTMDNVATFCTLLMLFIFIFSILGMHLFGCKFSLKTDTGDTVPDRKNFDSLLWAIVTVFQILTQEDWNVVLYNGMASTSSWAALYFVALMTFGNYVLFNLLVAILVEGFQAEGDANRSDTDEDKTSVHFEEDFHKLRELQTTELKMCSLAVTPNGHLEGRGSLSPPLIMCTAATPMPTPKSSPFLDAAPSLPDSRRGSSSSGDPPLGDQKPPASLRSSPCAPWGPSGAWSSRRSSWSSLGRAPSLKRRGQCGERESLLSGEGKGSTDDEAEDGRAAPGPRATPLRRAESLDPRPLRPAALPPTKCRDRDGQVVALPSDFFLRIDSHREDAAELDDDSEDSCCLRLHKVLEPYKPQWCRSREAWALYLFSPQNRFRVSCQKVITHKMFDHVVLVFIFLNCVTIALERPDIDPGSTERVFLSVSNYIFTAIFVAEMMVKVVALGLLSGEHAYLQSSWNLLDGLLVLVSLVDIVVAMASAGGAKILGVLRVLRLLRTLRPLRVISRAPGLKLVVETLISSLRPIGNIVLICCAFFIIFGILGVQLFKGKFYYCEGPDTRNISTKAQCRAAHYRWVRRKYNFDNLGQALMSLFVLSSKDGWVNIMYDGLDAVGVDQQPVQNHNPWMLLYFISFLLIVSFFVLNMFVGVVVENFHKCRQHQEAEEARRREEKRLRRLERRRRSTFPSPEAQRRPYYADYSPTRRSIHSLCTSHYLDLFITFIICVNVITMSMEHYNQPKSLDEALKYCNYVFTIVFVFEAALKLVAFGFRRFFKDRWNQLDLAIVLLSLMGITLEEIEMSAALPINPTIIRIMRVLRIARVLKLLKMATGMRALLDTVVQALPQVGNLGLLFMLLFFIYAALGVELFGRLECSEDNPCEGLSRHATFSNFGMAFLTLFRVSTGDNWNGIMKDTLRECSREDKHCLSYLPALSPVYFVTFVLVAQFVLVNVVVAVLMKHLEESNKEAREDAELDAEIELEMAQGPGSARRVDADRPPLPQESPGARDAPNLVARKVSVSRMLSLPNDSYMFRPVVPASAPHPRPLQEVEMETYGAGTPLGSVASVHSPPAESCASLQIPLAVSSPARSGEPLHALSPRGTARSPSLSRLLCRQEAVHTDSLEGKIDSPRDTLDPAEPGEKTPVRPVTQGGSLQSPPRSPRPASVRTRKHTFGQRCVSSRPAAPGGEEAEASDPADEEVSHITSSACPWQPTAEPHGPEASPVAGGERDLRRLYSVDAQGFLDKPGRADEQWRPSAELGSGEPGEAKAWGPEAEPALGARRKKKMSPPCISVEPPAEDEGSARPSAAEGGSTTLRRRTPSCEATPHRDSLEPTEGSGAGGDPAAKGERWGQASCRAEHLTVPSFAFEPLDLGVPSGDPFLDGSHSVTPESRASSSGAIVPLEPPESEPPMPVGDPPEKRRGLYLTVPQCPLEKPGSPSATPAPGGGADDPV
METHOD: whole-cell patch clamp, tsA-201 cells transiently expressing human CaV3.[…]

STRUCTURE NOTATION: CCCCCn1c2ccccc2c2cc(C(=O)OCCN(C)C)ccc21
IC50 / µM: 4.6
